Hi there, I'd appreciate the recorded viability for every entry that follows.
EXPERIMENTAL_DETAILS: SK-BR-3 cell growth inhibitors, pilot screen, 24 h, human (AID 572);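 also: compound exposure lasted between 18 and 24 h rather than exactly 24 h; 100% = carrier-treated control wells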
APPLIED_CONDITIONS: SK-BR-3 viability, CellTiter-Glo luminescence, at 10 µM, hits give low values
The answer is to be given in %; state only the numeric part.

# lookup: viability of `CCOC(=O)c1sc(=NC(=O)c2ccc(OC)c(OC)c2)n(C)c1C`
121

Subsequent entry: CCC1c2ccc(C)n2CCN1C(=O)Nc1ccccc1OC (stereo unspecified)
89.5

Next entry: `N#Cc1c(NC(=O)CSc2nnnn2C2CCCC2)sc2c1CCCC2`
82.5

Same for `C=CCn1cc(C(=O)NCCOC)c(=O)c2cc(S(=O)(=O)N(CC)CC)ccc21`
98.5

Another molecule: CCOC(=O)N1CCN(CC(O)COc2ccccc2C(C)CC)CC1 (stereo unspecified)
104

Now consider CCC(C)NC(=O)C1(C)CCC(=O)N1CCc1ccc(OC)c(OC)c1 (stereo unspecified) .
104

====

EXPERIMENTAL_DETAILS: SK-BR-3 cell growth inhibitors, pilot screen, 24 h, human (AID 572);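 also: compound exposure lasted between 18 and 24 h rather than exactly 24 h; 100% = carrier-treated control wells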
APPLIED_CONDITIONS: SK-BR-3 viability, CellTiter-Glo luminescence, at 10 µM, hits give low values
ASSAY_READOUT: viability (%)
Lab book: enter the figure in %, no units written.

Value lookup for viability; key = CCC(=O)N1CCNC(=O)C1CC(=O)Nc1ccc(C)c(Cl)c1 (stereo unspecified)
97

Also `N#Cc1c(N)nc2c(c1-c1ccncc1)CCCCC2` ?
102

What about this compound? `Cc1noc(C)c1C(=O)Nc1ccc(Cl)cc1C(F)(F)F`
91

Again, but for `O=C(CCc1nc2ccccc2[nH]1)Nc1ccc2c(c1)OCO2`
79

And for `O=C(NC1CCCCC1)N(Cc1ccccc1)Cc1ccco1` ?
94.5

Also need `CC(=O)OCC(=O)[C@@]12OC3(CCCC3)O[C@@H]1C[C@H]1[C@@H]3CCC4=CC(=O)C=C[C@]4(C)[C@@]3(F)[C@@H](O)C[C@@]12C` , thanks.
132

Next up: `COC(=O)[C@@H](N)Cc1ccc(O)cc1`
106

Record: `CCOc1ccc2nc(S(N)(=O)=O)sc2c1`
127

Param item: `Nc1nc(F)nc2c1ncn2[C@@H]1O[C@H](CO)[C@@H](O)[C@@H]1O`
97

Repeat for the following compound: `O=C(COC(=O)c1ccc(Br)o1)Nc1ccc(S(=O)(=O)N2CCCC2)cc1`
80

Try `CCOC(=O)c1c(C)oc2ccc(OCC(N)=O)cc12` next.
120

====

EXPERIMENTAL_DETAILS: inhibitors of the yeast RAM network, pilot screen, dse1pr::URA3 reporter, 5-FOA selection (AID 869);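 also: 0% = DMSO wells with no growth and 100% = 10 µM 1-NA-PP1 with full growth; RAM network block rescues cells from 5-FOA so hits raise OD615 growth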
APPLIED_CONDITIONS: S. cerevisiae dse1pr::URA3 5-FOA growth, OD615, 2 d; at 10 µM; hits give high values; strain carries analog-sensitive mutant Cbk1 kinase
Label Fulfilled when inhibition >= 1%; otherwise Not fulfilled.

Can `CCNc1nc2c(c(=O)[nH]c(=O)n2C)n1CC(C)C` be said to have inhibition at or above 1%?
Not fulfilled

And for `O=C(CCCN1C(=O)c2ccccc2C1=O)Nc1ccccc1C(=O)N1CCOCC1` ?
Not fulfilled

How about `O=C(NCCO)c1ccc2[nH]c3c(c2c1)CCCC3` ?
Fulfilled

Continue with CC(=O)Nc1nc2n(n1)C(c1ccccc1)C=C(c1ccccc1)N2 (stereo unspecified)
Fulfilled

Now this one: `COc1cccc(Nc2cc(C)nc3nc(C)nn23)c1`
Fulfilled
